Target: T1, canine IL-4 receptor alpha chain (full length) expressed on the surface of CHO DG44 cells (canine)
T1 construct: also called cIL-4Rα; CHO-cIL-4Rα
T1 chain: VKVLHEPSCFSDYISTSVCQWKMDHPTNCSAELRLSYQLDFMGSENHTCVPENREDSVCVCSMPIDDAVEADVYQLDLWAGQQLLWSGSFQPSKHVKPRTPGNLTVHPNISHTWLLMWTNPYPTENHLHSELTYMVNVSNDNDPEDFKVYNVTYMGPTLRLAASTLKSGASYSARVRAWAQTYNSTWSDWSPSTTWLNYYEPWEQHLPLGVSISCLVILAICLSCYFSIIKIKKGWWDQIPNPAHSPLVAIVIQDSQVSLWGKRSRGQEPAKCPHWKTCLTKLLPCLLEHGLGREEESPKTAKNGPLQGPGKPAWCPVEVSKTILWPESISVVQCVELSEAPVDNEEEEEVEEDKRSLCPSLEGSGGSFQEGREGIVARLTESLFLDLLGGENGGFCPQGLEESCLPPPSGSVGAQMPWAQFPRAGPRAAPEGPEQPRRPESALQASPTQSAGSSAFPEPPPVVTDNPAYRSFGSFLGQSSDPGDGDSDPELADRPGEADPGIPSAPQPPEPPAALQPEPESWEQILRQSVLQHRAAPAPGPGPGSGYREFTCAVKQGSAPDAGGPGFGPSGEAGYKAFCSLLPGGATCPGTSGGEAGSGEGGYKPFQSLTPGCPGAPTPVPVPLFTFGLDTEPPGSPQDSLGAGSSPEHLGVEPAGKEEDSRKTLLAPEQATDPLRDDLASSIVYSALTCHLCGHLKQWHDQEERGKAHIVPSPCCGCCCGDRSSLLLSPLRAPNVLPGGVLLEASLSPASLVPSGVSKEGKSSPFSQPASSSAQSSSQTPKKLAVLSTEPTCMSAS
Test: flow cytometry, binding to CHO-cIL-4Rα cells
Outcome measure: EC50 (nM)
Give bare numbers, in nM.

[
  {
    "Binder": "mouse anti-canine IL-4Rα monoclonal antibody 11H2 (antibody, V domains shown, Hybridoma-derived mouse antibody; also called mAb 11H2) VH: DVKLVESGGGLVQPGGSLKLSCAASGFTFSDYYMYWVRQTPEKRLEWVAYVSSGGGSIYYPDTVKGRFTISRDNAKNTLYLQMSRLKSEDTAMYYCARHGSPFGSSRGAWFAYWGQGTLVTVSA VL: DIQMTQSPASLSASVGETVTITCRASENIYSYLAWYQQKQGKSPQLLVYNAKTLAEGVPSRFSGSGSGTQFSLKINSLQPEDFGNYYCQHYDGFPFTFGGGTKLELK",
    "EC50 (nM)": 1.2
  },
  {
    "Binder": "mouse anti-canine IL-4Rα monoclonal antibody 2E2 (antibody, V domains shown, Hybridoma-derived mouse antibody; also called mAb 2E2) VH: EVKLVESGGGLVQPGGSLKLSCVASGFTFSDYHMHWVRQTPEKRLEWVAYISKGGGSTYYPDTEKGRFTISRDNAKNTLYLQMSRLKSEDTAMYYCARSPGPSSFYWYFDVWGTGTTVTVSS VL: DIQMTQSPASLSASVGETVTITCRASENIYSYLAWYQQKQGKSPQLLVYNAKTLAEGVPSRFSGSGSGTQFSLKINSLQPEDFGSYYCQHHYGIPVTVGVGTKLELK",
    "EC50 (nM)": 1.2
  },
  {
    "Binder": "mouse anti-canine IL-4Rα monoclonal antibody 4H3 (antibody, V domains shown, Hybridoma-derived mouse antibody; also called mAb 4H3) VH: QVQLQQPGAELVKPGASVKLSCKASGYTFTNYWIHWMKQRPGRGLEWIGRIDPNSGGTKYNEKFKSKATLTVDKPSITAYMQLSSLTSEDSAVYYCAAFGSTYGFAYWGQGTLVTVSA VL: DIVMSQSPSSLAVSAGEKVTMSCKSSQSLLNSRTRKNYLAWYQQKPGQSPKLLIYWASTRESGVPDRFTGSGSGTDFTLTISSVQAEDLAVYYCKQSYNLYTFGGGTKLEIK",
    "EC50 (nM)": 1.6
  },
  {
    "Binder": "mouse anti-canine IL-4Rα monoclonal antibody 6C12 (antibody, V domains shown, Hybridoma-derived mouse antibody; also called mAb 6C12) VH: QIQLIQSGPELKKPGETVKISCKASGYTFTTFGMSWVKQAPGKGLKWMGWISTYSGVPTYADDFKGRFAFSLETSASTAYLQINNLKNEDTASYFCARHTFQSRGLAYWGQGTLVTVSA VL: DIVMTQSHKFMSTSVGDRVSITCKASQDVITTVAWYQQKPGQSPKLLIYSASYRYTGVPDRFTGSGSGTDFTFTITSVQTEDLAVYYCQQHYSTPWTFGGGTKLEIK",
    "EC50 (nM)": 8.6
  },
  {
    "Binder": "mouse anti-canine IL-4Rα monoclonal antibody 11B6 (antibody, V domains shown, Hybridoma-derived mouse antibody; also called mAb 11B6) VH: EVQLQESGPGLAKPSQTLSLTCSVTGYSITSDYWNWIRKFPGNKLEYMGYINYSGNTYYNPSLKSRISITRDTSKNQYYLQLNSVTTEDTATYYCARYGGLRQGSWHFDVWGPGTTVTVSS VL: QIVLTQSPAIMSASPGEKVTISCSASSSVSYMYWYQQKPGSSPKPWIYRTSNLASGVPARFSGSGSGTSYSLTISSMEAEDAATYYCQQYHSYPATFGGGTKLEIK",
    "EC50 (nM)": 7.5
  }
]

Now examine the next entry.
Recorded EC50 (binder mouse anti-canine IL-4Rα monoclonal antibody 4D8 (antibody, V domains shown, Hybridoma-derived mouse antibody; also called mAb 4D8) VH: EVTLVESGGGLVQPGGSLKLSCAASGFTFSDYYMYWVRQTPEKRLEWVAYISPGGGSTYYPDTIKGRFTISRDNAKNTLYLQMSRLKSEDTAMYYCTRHGSPYGSSRGAWFAYWGQGTLVTVSA VL: DIQMTQSPASLSASVGETVTITCRASENIYSYLAWYQQKQGKSPQLLVYNGKTLAEGVPARFSGSGSGTQFSLKINSLQPEDFGSYYCQHHDGIPVTFGAGTKLELK ): 1.1

Origin of measurements: patent US20180346580A1
